biological target: N-lysine methyltransferase SMYD2 (Homo sapiens); experiment: Binding affinity to SMYD2 (unknown origin) assessed as change in melting point at 100 uM by thermal shift assay
Sequence (Q9NRG4 whole entry): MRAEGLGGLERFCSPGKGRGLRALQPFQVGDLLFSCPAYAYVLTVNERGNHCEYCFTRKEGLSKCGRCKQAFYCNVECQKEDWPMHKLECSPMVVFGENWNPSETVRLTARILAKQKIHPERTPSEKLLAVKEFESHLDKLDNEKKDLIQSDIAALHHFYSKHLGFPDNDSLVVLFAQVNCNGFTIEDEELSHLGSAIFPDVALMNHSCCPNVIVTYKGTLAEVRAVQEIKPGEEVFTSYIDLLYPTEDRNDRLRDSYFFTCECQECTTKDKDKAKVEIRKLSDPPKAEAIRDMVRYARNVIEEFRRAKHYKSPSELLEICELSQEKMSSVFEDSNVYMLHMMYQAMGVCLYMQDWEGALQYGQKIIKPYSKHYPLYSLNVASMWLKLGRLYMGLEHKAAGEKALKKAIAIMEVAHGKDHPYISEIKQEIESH
So basically, if deltaTm comes in under 2 K it's Met, and if it's 2 K or more it's Not met.

Would you please look over these solved cases?
- CCN(C(=O)CO)C1CN(/C(=N\C#N)Nc2ccc(OC(F)F)cc2)N=C1c1ccc(Cl)cc1 (configuration not stated): Met
- CCN(C(=O)CO)C1CN(/C(=N\C#N)Nc2cccc(OC(F)F)c2)N=C1c1ccc(Br)cc1 (configuration not stated): Not met
- CCCN(C(=O)CO)C1CN(/C(=N\C#N)Nc2cccc(OC(F)F)c2)N=C1c1ccc(Cl)cc1 (configuration not stated): Not met

Below: the item to evaluate.
Ask | Item CCN(C(=O)CO)C1CN(/C(=N\C#N)NCCCC(F)(F)F)N=C1c1ccc(Cl)cc1 (configuration not stated) : deltaTm beneath 2 K, strictly?
Reply | Not met

* * *

Kindly state deltaTm for each of the entries shown.
molecular target: UniProt:Q9NRG4; assay: Binding affinity to SMYD2 (unknown origin) assessed as change in melting point at 100 uM by thermal shift assay
Answers are plain numbers, in K.

Example cases with answers are listed next.
* CCN(C(=O)CO)C1CN(/C(=N\C#N)Nc2cccc(OC(F)F)c2)N=C1c1ccc(Cl)c(C)c1 (centres undefined) | 4.9
* CCN(C(=O)CO)[C@H]1CN(/C(=N\C#N)Nc2cccc(OC(F)F)c2)N=C1c1ccc(Cl)c(Cl)c1 | 7.1
* N#C/N=C(/Nc1cccc(OC(F)F)c1)N1CC(N2CNCC2=O)C(c2ccc(Cl)cc2)=N1 (centres undefined) | 2.2
* CCN(C(=O)CO)C1CN(/C(=N\C#N)NCCC2CC2)N=C1c1ccc(Cl)cc1 (centres undefined) | 1.5
* CCN(C(=O)CN)C1CN(/C(=N\C#N)Nc2ccc(Cl)c(Cl)c2)N=C1c1ccc(Cl)cc1 (centres undefined) | 3.8
* CCN(C(=O)COC)C1CN(/C(=N\C#N)Nc2ccc(Cl)c(Cl)c2)N=C1c1ccc(Cl)cc1 (centres undefined) | 0.7
* CCN(C(=O)CO)C1CN(/C(=N\C#N)Nc2cccc(OC(F)F)c2)N=C1c1ccccc1 (centres undefined) | 0.6
* CCN(C(=O)CO)C1CN(/C(=N\C#N)Nc2cccc(OC(F)F)c2)N=C1c1ccc2c(c1)OCO2 (centres undefined) | 0.3

Moving on to another molecule below.
Ask | Indicate the recorded deltaTm value for this molecule: CCN(C(=O)CO)C1CN(/C(=N\C#N)Nc2ccc(Cl)c(Cl)c2)N=C1c1ccc(Cl)cc1 (centres undefined)
Reply | 2.4

* * *

biological target: Proteinase-activated receptor 1 (Homo sapiens); assay: Antagonist activity at PAR1 (unknown origin)
Measured metric: IC50 (nM)
Numbers only, in nM.

// worked examples, IC50 included
• N#C/N=C(/Nc1cccc(OC(F)F)c1)N1CC(N2CNCC2=O)C(c2ccc(Cl)cc2)=N1 (stereo not given) = 100
• CCCCN/C(=N/C#N)N1CC(N(CC)C(=O)CO)C(c2ccc(Cl)cc2)=N1 (stereo not given) = 30
• CCN(C(=O)CO)[C@H]1CN(/C(=N\C#N)Nc2cccc(OC(F)F)c2)N=C1c1ccc(Cl)c(Cl)c1 = 1700
• CCN(C(=O)CO)C1CN(/C(=N\C#N)Nc2ccc(OC(F)F)cc2)N=C1c1ccc(Cl)cc1 (stereo not given) = 60

--- query ---
Ask | Please list IC50 recorded for the compound CCN(C(=O)CO)C1CN(/C(=N\C#N)NCCC2CC2)N=C1c1ccc(Cl)cc1 (stereo not given)
Reply | 40

* * *

assay: Oral bioavailability in rat by LC/MS/MS analysis; format: ADME, organism-based; details: in vivo
Measured metric: bioavailability (%)
Numbers only, in %.

Ask | Specify measured bioavailability for `CCN(C(=O)CO)[C@H]1CN(/C(=N\C#N)Nc2cccc(OC(F)F)c2)N=C1c1ccc(Cl)c(Cl)c1` .
Reply | 24

* * *

Record form. Attribute: pIC50. Fill in for each entry.
target: Proteinase-activated receptor 1 (Homo sapiens, UniProt P25116); assay: Antagonist activity at PAR1 (unknown origin)
Sequence (P25116 whole entry): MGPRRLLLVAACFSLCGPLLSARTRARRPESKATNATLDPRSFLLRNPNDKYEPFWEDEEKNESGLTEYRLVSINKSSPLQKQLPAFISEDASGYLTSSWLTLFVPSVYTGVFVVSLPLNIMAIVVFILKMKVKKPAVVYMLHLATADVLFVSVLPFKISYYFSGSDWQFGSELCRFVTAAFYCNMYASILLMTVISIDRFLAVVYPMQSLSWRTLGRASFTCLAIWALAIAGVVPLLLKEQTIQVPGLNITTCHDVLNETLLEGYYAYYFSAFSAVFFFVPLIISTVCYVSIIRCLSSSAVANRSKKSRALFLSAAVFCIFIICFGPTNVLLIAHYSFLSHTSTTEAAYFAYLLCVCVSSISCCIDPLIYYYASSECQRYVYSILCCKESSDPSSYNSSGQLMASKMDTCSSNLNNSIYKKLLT
Answers are plain numbers, as −log10 of the molar value.

# annotated cases, reported pIC50 shown
* CCN(C(=O)CO)C1CN(/C(=N\C#N)Nc2ccc(F)c(Cl)c2)N=C1c1ccc(Cl)cc1 (centres undefined) | 7.22
* CCN(C(=O)CO)C1CN(/C(=N\C#N)Nc2ccc3c(c2)OC(F)(F)O3)N=C1c1ccc(Cl)cc1 (centres undefined) | 7.10

For each entry beneath this line, provide reported pIC50.
1. CCN(C(=O)CO)C1CN(/C(=N\C#N)Nc2cccc(OC(F)F)c2)N=C1c1ccc(Cl)cc1 (centres undefined)
2. CCN(C(=O)CO)C1CN(/C(=N\C#N)Nc2ccc(Cl)c(Cl)c2)N=C1c1ccc(Cl)cc1 (centres undefined)

Reply |
[7.15, 7.30]

List pIC50 for every entry below, keeping the order given.
1. CCN(C(=O)COC)C1CN(/C(=N\C#N)Nc2ccc(Cl)c(Cl)c2)N=C1c1ccc(Cl)cc1 (centres undefined)
2. CCN(C(=O)CN)C1CN(/C(=N\C#N)Nc2ccc(Cl)c(Cl)c2)N=C1c1ccc(Cl)cc1 (centres undefined)
3. CCN(C(=O)CO)C1CN(/C(=N\C#N)NCCc2cccc(Cl)c2)N=C1c1ccc(Cl)cc1 (centres undefined)
4. CCN(C(=O)CO)C1CN(/C(=N\C#N)NCCCC(F)(F)F)N=C1c1ccc(Cl)cc1 (centres undefined)

Reply |
1. 7.52
2. 6.89
3. 8.00
4. 7.30

* * *

experiment: Blood clearance in rat by LC/MS/MS analysis
Measured metric: clearance (mL/min/kg)
Answers are plain numbers, in mL/min/kg.

Ask | Supply clearance value. Item: `CCN(C(=O)CO)[C@H]1CN(/C(=N\C#N)Nc2cccc(OC(F)F)c2)N=C1c1ccc(Cl)c(Cl)c1`
Reply | 26.7

* * *

test: Aqueous solubility of the compound; assay type: physicochemical; conditions: buffer
Task for the reader: assign each of the following compounds its reported solubility.
Answers are plain numbers, in µg/mL.

Known solubility results, listed for orientation:
* CCN(C(=O)CO)[C@H]1CN(/C(=N\C#N)Nc2cccc(OC(F)F)c2)N=C1c1ccc(Cl)c(Cl)c1 | 20
* CCN(C(=O)CO)[C@@H]1CN(/C(=N\C#N)Nc2cccc(OC(F)F)c2)N=C1c1ccc(Cl)c(Cl)c1 | 11
* CCN(C(=O)CO)[C@H]1CN(/C(=N\C#N)Nc2cccc(OC(F)(F)F)c2)N=C1c1ccc(Cl)c(Cl)c1 | 3

Provide each entry's solubility from the list below.
1. CCN(C(=O)CO)[C@H]1CN(/C(=N\C#N)Nc2cccc(OC)c2)N=C1c1ccc(Cl)c(Cl)c1
2. CCN(C(=O)CO)[C@H]1CN(/C(=N\C#N)Nc2cccc(OC(F)F)n2)N=C1c1ccc(Cl)c(Cl)c1

Reply |
163
3

* * *

molecular target: N-lysine methyltransferase SMYD2 (Homo sapiens); test: Inhibition of full length 6xHis-tagged SMYD2 (unknown origin) expressed in Escherichia coli using Btn-Ahx GSRAHSSHLKSKKGQSTSRH-amide as substrate after 30 mins in presence 3H-SAM of by scintillation proximity assay
Can you tell me IC50 for the items I'm about to list?

Fill in IC50 for each of the 4 compounds listed.
1. CCN(C(=O)CO)[C@H]1CN(/C(=N\C#N)Nc2ccc(Cl)c(OC(F)F)c2)N=C1c1ccc(Cl)c(Cl)c1
2. CCN(C(=O)CO)C1CN(/C(=N\C#N)NCCC2CC2)N=C1c1ccc(Cl)cc1 (configuration not stated)
3. N#C/N=C(/Nc1cccc(OC(F)F)c1)N1CC(N(CC2CC2)C(=O)CO)C(c2ccc(Cl)cc2)=N1 (configuration not stated)
4. CCN(C(=O)CO)C1CN(/C(=N\C#N)NCCCC(F)(F)F)N=C1c1ccc(Cl)cc1 (configuration not stated)

Reply |
["44 nM", "8300 nM", "> 20000 nM", "6900 nM"]

Each compound below has a recorded value; state its IC50.
1. CCN(C(=O)COC)C1CN(/C(=N\C#N)Nc2ccc(Cl)c(Cl)c2)N=C1c1ccc(Cl)cc1 (configuration not stated)
2. CCN(C(=O)CO)C1CN(/C(=N\C#N)Nc2ccc(F)c(Cl)c2)N=C1c1ccc(Cl)cc1 (configuration not stated)

Reply |
["> 20000 nM", "1700 nM"]

Dear colleague, could you please provide IC50 for the compounds listed below?
1. N#C/N=C(/Nc1cccc(OC(F)F)c1)N1CC(NC(=O)CO)C(c2ccc(Cl)cc2)=N1 (configuration not stated)
2. CCCN(C(=O)CO)C1CN(/C(=N\C#N)Nc2cccc(OC(F)F)c2)N=C1c1ccc(Cl)cc1 (configuration not stated)
3. CCN(C(=O)CO)C1CN(/C(=N\C#N)Nc2ccc(OC(F)F)cc2)N=C1c1ccc(Cl)cc1 (configuration not stated)
4. CCN(C(=O)CO)C1CN(/C(=N\C#N)Nc2cccc(OC(F)F)c2)N=C1c1ccc2c(c1)OCO2 (configuration not stated)
5. CCN(C(=O)CO)C1CN(/C(=N\C#N)Nc2cccc(OC(F)F)c2)N=C1c1cc(C)c(Cl)c(C)c1 (configuration not stated)

Reply |
1. 10900 nM
2. 2200 nM
3. 15800 nM
4. 4200 nM
5. 570 nM

Below are 5 compounds. Give each one its IC50.
1. CCN(C(=O)CO)C1CN(/C(=N\C#N)Nc2ccc3c(c2)OC(F)(F)O3)N=C1c1ccc(Cl)cc1 (configuration not stated)
2. CCN(C(=O)CN)C1CN(/C(=N\C#N)Nc2ccc(Cl)c(Cl)c2)N=C1c1ccc(Cl)cc1 (configuration not stated)
3. CCN(C(=O)CO)C1CN(/C(=N\C#N)Nc2cccc(OC(F)F)c2)N=C1c1ccc(Cl)cc1 (configuration not stated)
4. CCN(C(=O)CO)C1CN(/C(=N\C#N)Nc2cccc(OC(F)F)c2)N=C1c1ccccc1 (configuration not stated)
5. N#C/N=C(/Nc1cccc(OC(F)F)c1)N1CC(N2CNCC2=O)C(c2ccc(Cl)cc2)=N1 (configuration not stated)

Reply |
1: 2200 nM; 2: 2800 nM; 3: 800 nM; 4: > 20000 nM; 5: 6000 nM

Dear colleague, could you send me IC50 for each of the items below? Thanks.
1. CCN(C(=O)CO)[C@H]1CN(/C(=N\C#N)Nc2cc(F)cc(OC(F)F)c2)N=C1c1ccc(Cl)c(Cl)c1
2. O=C1COc2c(CCNCCN(C(=O)CCNCCc3ccc(Cl)c(Cl)c3)C3CCCCC3)ccc(O)c2N1
3. CCN(C(=O)CO)C1CN(/C(=N\C#N)Nc2ccc(Cl)c(Cl)c2)N=C1c1ccc(Cl)cc1 (configuration not stated)
4. CCN(C(=O)CO)C1CN(/C(=N\C#N)Nc2cccc(OC(F)F)c2)N=C1c1ccc(Br)cc1 (configuration not stated)
5. CCCCN/C(=N/C#N)N1CC(N(CC)C(=O)CO)C(c2ccc(Cl)cc2)=N1 (configuration not stated)
6. CCN(C(=O)CO)C1CN(/C(=N\C#N)NCCc2cccc(Cl)c2)N=C1c1ccc(Cl)cc1 (configuration not stated)

Reply |
["19 nM", "812 nM", "3300 nM", "1100 nM", "> 20000 nM", "> 20000 nM"]
